Origin of the recorded values: the nanobody polyreactivity screen of Harvey et al. (2022)

Assay: yeast display, Sf9 membrane polyspecificity reagent, FACS + sequencing; frameworks hold sequencing errors

residues	polyreactivity (PSR sort gate)
QVQLVESGGGLVQAGGSLRLSCAASGSIFSSYAMGWSRQAPGKEREFVAAISTGGRTYYADSVKGRFTISRDNAKNTVYLQMNSLKPEDTAVYYCAADGPLPHKVGTHTLDYWGQGTQVTVSS	low polyreactivity
QVQLVESGGGLVQAGGSLRLSCAASGLTFVDNAMGWYRQAPGKERELVAAISFRDGSTYYADSVKGRFTISRDNAKNTVYLQMNSLKPEDTAVYYCAAVGQTHPTSPLSTKYDYWGQGTQVTVSS	low polyreactivity
QVQLEESGGGLVQAGGSLRLSCAASGSTFRANAMGWYRQAPGKERELVAAISSGDSTNYADSVKGRFTISRDNAKNTVYLQMNSLKPEDTAVYYCAAVYTYYWWGSYGFWGQGTQVTVSS	low polyreactivity
QVQLVESGGGLVQAGGSLRLSCAASSRIFVAKAMGWYRKAPGKERELVATITRGASTNYADSVKGRFTISRDNAKNTVYLQMNRLKPEDTAVYYCDKRSYTGYEYWGQGTQVTVSS	low polyreactivity
QVQLVESGGGLVQAGGSLRLSCAASGFIFTYYAMGWYRPEHGKERDLVATINWSDGSTRYADSVKGRFTISRDNAKNTDYLQMNSLKPEDTAVYYCAKDWFNRPSVEMDYWGQGTQVTVSS	low polyreactivity
QVQLVESCGALVQAGGSLRLICAGSGSIFHVNAMGWSRPAHGKESELVAGISDGGSTYYADSVKGRFTISRYYAKNTVYFQMNSLKPEDSGVYYWATDYPSRWHVHRGFQGKYDYWGQGTQVTLSS	low polyreactivity
QVQLEESGGGLVQAGGSLRLSCAASGRTFDRNTMGWYRQAPGKERELVASITSSGASTYYADSVKGRFTISRDNAKNTVYLQINSLKPVDTSVYYCAARTYTGNYSNSKYYYWGQGTEVTVSS	high polyreactivity
QVQLVESGGGLVQAGGSLRLSCPASGSIFNSYAMGWYRQAPGKERELVAAISSGGSTNYADSVKGRFTISRDNAKNTVYLQMNSLKPEDTAVYYCAKGSRKSGYKYYHGRVWFGYWGQGTQVTVSS	high polyreactivity
QVQLEEAGGGLVQAGGSLSLSCAASGSILKVYAMGWSRQAPGQERELVAGNTRAGGSTNDADSVKGRFTISRDYAKNTVLLQMNSLKPEDTPVYYCAGRLKCYRRRDYWGQGTQVSVSS	high polyreactivity
QVQLVESGGGLVQAGGSLRLSCAASGRTFWYYAMGWYRQAPGKERELVASISASGGSTFYADSVKGRFSISRDHAKNTVYLQMNSLKPEDTAVYYCAAKNAVWRRYEYWGQGTQVTVSS	high polyreactivity
QVQLVESGGGLVQAGGSLRLSCAASGSTFQYYARGWYRQAPGKETELVAAISDRDGGTFYADSVKGRFTISRDNAKNTVYLQMNSLKPEDTAVYYCATDAVGFRLDDNGYWGQGTQVTVSS	low polyreactivity
QVQLVESGGGLDQAGGSLRLSCAASGSTFANNAMGWYREAPGKERELVAAISSGGSTNYADSVKGRFTISRDNAKNTGYLQMNSLKPEDTAVYYCNADAYDEIKYGYWGQGTQVTVSS	low polyreactivity
QVQLVESGGGLVQAGGSLRLSCAASGGIFGRYDMGWYRQAPGKERELVAAISKRGGSTYYADSVKGRFTISRDNAKNTVYLQMNSLKPEDTAVYYCNAAQSVELGYDYWGQGTQGTVSS	high polyreactivity
QVQLVESGGGLVQAGGSLRLSCAASGRIFYKYAMGWYRQAPGKERELVAAISWSGGRTYYADSVKGRFTISRDNAKNTVYLQMNSLKPEDTAVYYCAAVRGGASGGYDYWGQGTQVTVSS	high polyreactivity
QVQLVESGGGLVQAGGSLRISCAASGRIFYNNDMAWYRQAPGKERELVAAITVRGSITYYADSVKGRFTISRDNAKTTVYLHMNSLKPEDTAVYYCATEWVNRLYSWGQGTQVTVSS	low polyreactivity
QVQLVESGGGLVQAGGSLRLSCAASGRIYSVYGLGWYRQAPGKDRELVAAISSSAGSTNYADSVKGRFTISRDNAKNTVYLQMNSLKPEDTAVYYCAAYYRRVVYYPTAYYIRKYDYWGQGTQVTVSS	high polyreactivity
QVQLVESGGGLVQAGGSLRLSCAASGSIFIYNAMGWYRQGPGKERELVAAISSSGGSTYYADSVKGRFTISRDNAKNTVYLQMNSLNPEDTAVYYCAARTYYVRGLGGRPGMDYWGPGTQVTVSS	low polyreactivity
QVQLVESGGGLVQAGGSLRLSCAASGFTFNDNDMGWYRQAPGKEWELVAAITYGGSTYYADSVKGRFTISRENAKNTVYLQMNSLKPEDTAVYYCNVEFFFWPYEYGYWGQGTQVNVSS	low polyreactivity
QVQHVESGGGLVQAGGSLRLSCAASGGTFYSYAMGWYRQAPGKERELVAAISRRGGSTYYADSVKGRFTISRDNAKNTVYLQLNSLKPEDTAVYYCAAKGPSYGVTRMYYWGQGTQVTVSS	high polyreactivity
QVQLVESGGGLVQAGGSLRLSCAASGSTFNDNAMGWYRQAPGKERELVAAIRWSGGSTYYADSVKGRFTISRDNAKNTVYLQMNSLKPEDTAVYYCAASRRYYLTYRYYYWGQGTQVTVSS	high polyreactivity
QVQLVESGGGLVQAGGSLRLSCAASGSIFTKYAMGWYRQAPGKERELVAAISWSGVSTYYADSVKGRFTISRDNAKHTVYLQMNSLKPEDTAVYYCNTRRYRSYGTTRYGYWGQGTQLTVSS	high polyreactivity
